experimental-target: T1, ABH2 Y122A (human, UniProt Q6NS38 1-261, Y122A)
T1 sequence: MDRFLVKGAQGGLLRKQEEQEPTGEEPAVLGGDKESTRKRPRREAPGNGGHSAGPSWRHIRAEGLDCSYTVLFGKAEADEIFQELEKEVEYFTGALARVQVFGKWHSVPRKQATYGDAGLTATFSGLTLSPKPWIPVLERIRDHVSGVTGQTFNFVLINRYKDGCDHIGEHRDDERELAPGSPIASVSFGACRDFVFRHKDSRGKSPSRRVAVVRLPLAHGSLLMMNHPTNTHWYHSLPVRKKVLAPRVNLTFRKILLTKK
experiment: EMSA; 0.5 mM αKG, 10 mM Mg2+, 2 mM ascorbate; EMSA: 50 mM Tris-HCl pH 8.0, 50 mM KCl, 10 mM MgCl2, 0.5 mM αKG, 2 mM Na ascorbate; 1.2 µM DNA, 0.4-12.8 µM protein; 10 min 37 °C then 5 min on ice; 10% native
setup-conditions: protein: recombinant; tags: N-terminal His6; label: 5'-FAM on strand 1; blunt
Items are presented alongside their recorded Kd.
Your answer should be a plain number; it is taken to be in nM.

Q. Please report the recorded Kd for m1A (dsDNA, N1-methyladenine at position 10 of strand 1) DNA 1: AGTTCAATGATCTTCAT DNA 2: ATGAAGATCATTGAACT .
A. 2110

Note: attention shifts to another entry.
Q. Please report the recorded Kd for m3C (dsDNA, N3-methylcytosine at position 12 of strand 1) DNA 1: AGTTCAATGATCTTCAT DNA 2: ATGAAGATCATTGAACT .
A. 2490
